Test system: NCI/ADR-RES ovarian
Test: NCI-60 one-dose screen, 48 h (100 = growth as untreated, 0 = no growth, -100 = all killed)
Conditions: 10 µM unless noted
Protocol: Growth inhibition of the NCI/ADR-RES human […] tumor cell line is measured as a screen for anti-cancer activity. Cells are grown in 96 well plates and exposed to the test compound for 48 hours. Compounds are tested at a single concentration, which is 10^-5 M for most compounds. The reported endpoint is percent growth (GI% or GIPRCNT), where numbers from 0 - 100% represent growth inhibition, and numbers from -100% - 0 represent cell death. For example, a value of 40 represents 60% growth inhibition. […]
Compounds without any hit were thinned out: in the full panel of roughly 83,000, 20% have a hit.
Think of 80% as a floor: if growth stands on it or above, it is TRUE; beneath it, FALSE.

{"columns": ["molecule", "label.class"],
 "data": [
  ["O=c1c2cc(-c3ccccc3)sc2nc2sc(-c3ccccc3)nn12", "TRUE"],
  ["N#CC1CCc2c(c(-c3cn[nH]c3C(F)(F)F)nc3c(F)cc4[nH]ncc4c23)C1 (centres undefined)", "TRUE"],
  ["O=C(CSc1nc2ccc([N+](=O)[O-])cc2[nH]1)Nc1cccc(C(F)(F)F)c1", "FALSE"],
  ["C[C@H](NC(=O)[C@@H](C)N)[C@H](Oc1ccc2c(cnn2-c2ccc(F)cc2)c1)c1ccc2c(c1)OCCO2", "FALSE"],
  ["O=C1/C(=C/c2ccc(Cl)c(Cl)c2)CN(C(=O)C(Cl)Cl)C/C1=C\\c1ccc(Cl)c(Cl)c1", "FALSE"],
  ["O=C(CSc1nc(-c2ccccc2)[nH]c1S(=O)(=O)c1ccccc1)NC1CC1", "TRUE"],
  ["N#CCSc1nnc2n(Cc3ccccc3)c(=O)c3c4c(sc3n12)CCCC4", "TRUE"],
  ["CCO/C=N/C1=C(C#N)C(c2ccc(OC)cc2)c2sc3c(F)cccc3c2O1 (centres undefined)", "FALSE"],
  ["Oc1c(Cl)cc(Cl)c2ccc(Cn3cc(-c4cc(F)cc(F)c4)nn3)nc12", "TRUE"],
  ["CCOC(=O)c1ccc2[nH]c(O)c(C(=Nc3ccc(N(C)C(=O)CN4CCN(C)CC4)cc3)c3ccccc3)c2c1", "FALSE"],
  ["C[C@@H]1CCC[C@H]1CC(N)C(=O)O (some centres undefined)", "TRUE"],
  ["C=C1CC[C@@H]2[C@](C)(COC(C)=O)[C@H](OC(C)=O)CC[C@@]2(C)[C@@H]1CC(Sc1ccccc1)C1=CCOC1=O (some centres undefined)", "FALSE"],
  ["COc1cc2c(c(OC)c1OC)-c1ccc(OC)c(=O)cc1[C@@H](NC(=O)CCl)CC2", "FALSE"],
  ["O=C(Cn1c(-c2ccc([N+](=O)[O-])cc2)nc2ccccc21)NNC(=O)c1cccnc1", "TRUE"],
  ["CC1=C(Nc2ccc(N3CCN(C)CC3)cc2)C(=O)c2cncnc2C1=O", "FALSE"],
  ["COc1ccc(/C=C2\\COc3ccc(O)c(O)c3C2=O)cc1", "FALSE"],
  ["CCCCNC(=O)Oc1ccc(/C(=C(/CC)Cc2ccccc2)c2ccc(OCCN3CCCCCC3)cc2)cc1", "FALSE"],
  ["O=S(=O)(Nc1cc(Br)c(O)c2ccccc12)c1ccc(F)cc1", "FALSE"]
]}

Origin of the recorded values: PubChem BioAssay (NCI)
